The origin of these recorded values is paper PMC7179167.

test: DPPH free radical scavenging assay; assay type: biochemical; details: 15 min; concentration of 20µg/l; mean ± SD of three experiments; read-out: Scavenging Activity (%) on DPPH radicals at 15 min
Rule: 1 for inhibition not less than 20%, -1 for anything less.

Would you please look over these solved cases?
O=C1Nc2ccccc2C12CC(c1cn(S(=O)(=O)c3ccc(Br)cc3)c3ccccc13)=NN2c1ccccc1 (centres unmarked) [Compound 14g]    -1
O=C1Nc2ccccc2C12CC(c1c[nH]c3ccccc13)=NN2c1ccccc1 (centres unmarked) [Compound 14a]    1

From here, focus on the item given below.
Check the entry COc1c(C2=NNC3(C2)C(=O)Nc2ccccc23)c(O)cc2occc12 (centres unmarked) [Compound 11a] : does inhibition equal or exceed 20%?
-1

---

tested on: HepG-2 (human liver cancer); assay: MTT cytotoxicity assay, HepG-2; type: cell-based; details: HepG2, 100 µg/ml, 48 h, read-out: Growth Inhibition (%) HepG-2
Outcome label depends on inhibition at 100 µg/mL relative to 80%: at/above gives Fulfilled, below gives Not fulfilled.

O=C(c1ccc(Cl)cc1)n1cc(C2=NNC3(C2)C(=O)Nc2ccccc23)c2ccccc21 (stereo not drawn) [Compound 13f]    Not fulfilled
O=C(c1ccccc1)n1cc(C2=NNC3(C2)C(=O)Nc2ccccc23)c2ccccc21 (stereo not drawn) [Compound 13d]    Fulfilled
O=C1Nc2ccccc2C12CC(c1c[nH]c3ccccc13)=NN2 (stereo not drawn) [Compound 13a]    Fulfilled

Could you tell me if the measured inhibition at 100 µg/mL of O=C1Nc2ccccc2C12CC(c1cn(Cc3ccccc3)c3ccccc13)=NN2 (stereo not drawn) [Compound 13c] reaches 80% or more?
Fulfilled

---

compounds and their reported zone of inhibition at 20 µg/disc
system: C. albicans (ATCC 10231); experiment: Disk diffusion antimicrobial test, C. albicans; format: cell-based, Candida albicans; conditions: Candida albicans, ATCC10231, disk diffusion; yeast; 20 mg per disc (title), concentration 20 µg (footnote)
The response must be a number in mm with no trailing unit.

Please review the entries below; each comes with its answer.
COc1c(-c2cnc3ccccc3c2C(=O)O)c(O)cc2occc12 [Compound 15a]    12
CCOc1c(C2=NNC3(C2)C(=O)Nc2ccccc23)c(OC)c2ccoc2c1OC (stereo not drawn) [Compound 12c]    10

Please examine the following record next.
// lookup zone of inhibition at 20 µg/disc for COc1cc2occc2c(OC)c1C1=NNC2(C1)C(=O)Nc1ccccc12 (stereo not drawn) [Compound 11b]
18

---

assay: DPPH free radical scavenging assay; type: biochemical; conditions: 15 min; concentration of 20µg/l; mean ± SD of three experiments; read-out: Scavenging Activity (%) on DPPH radicals at 15 min
Listed here are compounds together with their documented inhibition.

O=C1O[C@H]([C@@H](O)CO)C(O)=C1O [Ascorbic acid, ascorbic acid, reference compound]    94.4%
COc1c(-c2cnc3ccccc3c2C(=O)O)c(O)cc2occc12 [Compound 15a]    9.36%

Returns the measured inhibition for the input compound. Input: O=C(c1ccccc1Cl)n1cc(C2=NN(c3ccccc3)C3(C2)C(=O)Nc2ccccc23)c2ccccc21 (centres unmarked) [Compound 14e]
17.9%

Need inhibition, item O=C1Nc2ccccc2C12CC(c1cn(Cc3ccccc3)c3ccccc13)=NN2c1ccccc1 (centres unmarked) [Compound 14c]
14.8%

Requested read-out: inhibition. Entry: O=C1Nc2ccccc2C12CC(c1cn(S(=O)(=O)c3ccc(Cl)cc3)c3ccccc13)=NN2 (centres unmarked) [Compound 13h]
15.2%
